For each of the binders below, state its OD.
- MEASURED_ON: human serum-derived IgG polyclonal antibody (#I4506; Sigma-Aldrich) (human)
- PROTOCOL_DESCRIPTION: ELISA
One number for each entry.

Use the examples below as a reference point.
BINDER	OD
R3-23 (scFv, not shown: small tags and cut ends) scFv: QSVKESEGRLVTPGTPLTLTCTVSGFSLSRYAVSWVRQAPGKGLEWIGIIGSGGSTSYATWARGRFTISKTSTTVDLKITSPTTEDTVTYFCGSYYDSHGYAYVSLWGPGTLVTVTSGGGGSGGGGSGGGGSELVLTQTPSPVSGAVGGTVTINCQASQSISTALAWYQQKPGQPPKLLIYSASTLASGVSSRFKGSGSGTGFTLTISDLECADAATYYCQSYYGSSSDNAFGGGTEVVIKRS	3.04
R3-58 (scFv, not shown: small tags and cut ends) scFv: QQQLMESGGRLVTPGGSLTLTCTVSGIDLNSYAMGWVRQAPGKGLEYIGIIRNSGNTYYASWAKGRFTISKTSSTTVDLKMTSLTTEDTATYFCARYSGDNGGALNLWGPGTLVTVTSGGGGSGGGGSGGGGSELVMTQTAASVSGPVGGTVTIKCQASEFIRNYLAWYQQKPGQPPKLLIYTTSNLASGVPSRFSGSGSGTEYTLTISDLECADAATYYCQNYYDISTYGNAFGGGTEVVVIKGS	3.05

// sample R3-8 (scFv, not shown: small tags and cut ends) scFv: QSLEESGGRLVTPGTPLTLTCTVSGIDLSSNAMTWVRQAPGEGLEWIGTISTGGSTYFASWAKGRFTISKTSTTVDLKITSPTTEDTATYFCATRYDSYGYAYNYWFGTLWGPGTLVTVTSGGGGSGGGGSGGGGSELVMTQTAASVSEPVGGTVTINCQASQSISDELAWYQQKPGQRPKLLIYDASDLASGVPSRFSGSGSGTEFTLTISGVQCDDAATYYCQSAYYDGRYVYAFGGGTEVEVTGS , its OD was 3.01
